growth listing for selected compounds.
Tested on: MALME-3M melanoma
Test: NCI-60 one-dose screen, 48 h (100 = growth as untreated, 0 = no growth, -100 = all killed)
Details: 10 µM unless noted
Experimental: Cells are grown in 96 well plates and exposed to the test compound for 48 hours. Compounds are tested at a single concentration, which is 10^-5 M for most compounds. The reported endpoint is percent growth (GI% or GIPRCNT), where numbers from 0 - 100% represent growth inhibition, and numbers from -100% - 0 represent cell death. For example, a value of 40 represents 60% growth inhibition. A value of 0 means no net growth occurred over the course of the experiment. […]
This is part of a sample that, as a whole, favours compounds with a hit. Of some 83,000 tested, about 20% had one in any assay. Active and inactive are the calls of the source. Rule for the calls: active = growth percent below 10; inactive = the rest.
measurement label: growth

compound=C=C1C(=O)O[C@@H]2C[C@@H](C)[C@H](OC)CC(=O)[C@](C)(OC(C)=O)C[C@H](OC(=O)/C(C)=C\C)[C@@H]12 observed_measurement="40.2% (inactive)"
compound=NC(=O)C(=Cc1ccc(Cl)cc1)C(N)=O observed_measurement="82% (inactive)"
compound=CCNC(=O)Oc1ccc(/C(=C(/C)c2ccccc2)c2ccc(OCCN3CCCC3)cc2)cc1 observed_measurement="30% (inactive)"
compound=C=CCn1c(SCC(=O)c2ccc(OC)cc2)nnc1-c1ccc(OC)cc1 observed_measurement="96.4% (inactive)"
compound="COc1ccc(C2C(C#N)=C(N)Oc3c2sc2ccc(C)cc32)cc1 (stereo unspecified)" observed_measurement="50% (inactive)"
compound=ClC(Cl)c1nc(-c2cccs2)n2nc(-c3ccccc3)cc2n1 observed_measurement="67.7% (inactive)"
compound=O=C(NCCNc1cc(-c2cn(-c3ccccc3)nc2-c2cccc(O)c2)ccn1)Nc1ccc(Cl)c(C(F)(F)F)c1 observed_measurement="83% (inactive)"
compound="CS(=O)c1nccc(-c2c(-c3ccc(F)c(OCc4ccc(F)cc4)c3)nc3sccn23)n1 (stereo unspecified)" observed_measurement="92.3% (inactive)"
compound=O=S(=O)(Nc1cc(Cl)c(F)c(Cl)c1)c1ccc(-c2cnc(C3CC3)o2)cc1 observed_measurement="55% (inactive)"
compound=Oc1ccc(CSc2nnc(-c3ccccc3)n2-c2ccccc2)c2cccnc12 observed_measurement="12.2% (inactive)"
compound=COc1ccccc1/C=C/C(=O)c1nnn(-c2ccc(C(=O)O)cc2)c1C observed_measurement="86.8% (inactive)"
compound=CC(=O)NC(C)(C)C(=O)N1CCC[C@H]1C(=O)NC(C)(C)C(=O)N[C@@H](C)C(=O)NC(C)(C)C(=O)N[C@@H](C)C(=O)N[C@@H](CCC(N)=O)C(=O)NC(C)(C)C(=O)N[C@H](C(=O)NC(C)(C)C(=O)NCC(=O)N[C@@H](CC(C)C)C(=O)NC(C)(C)C(=O)N1CCC[C@H]1C(=O)N[C@H](C(=O)NC(C)(C)C(=O)NC(C)(C)C(=O)N[C@@H](CCC(N)=O)C(=O)N[C@@H](CCC(N)=O)C(=O)N[C@H](CO)Cc1ccccc1)C(C)C)C(C)C observed_measurement="57.1% [4.25 µM] (inactive)"
compound=CN1CCN(c2ccc3c(C(N)=O)c(NC(=O)c4ccc(C(C)(C)C)cc4)sc3c2)CC1 observed_measurement="81.6% (inactive)"
compound=COc1cc(/C=N/n2cnc3oc(-c4ccccc4)cc3c2=N)cc(CN2CCN(C)CC2)c1O observed_measurement="113% (inactive)"
compound=Cc1cc(NS(=O)(=O)c2ccc(-c3cnc(C4CC4)o3)cc2)ccc1I observed_measurement="48.8% (inactive)"
compound=Cn1cc(-c2nnc(N)nc2-c2cn(C)c3ccc(F)cc23)c2cc(F)ccc21 observed_measurement="107% (inactive)"
